The reported numbers originate from the supplement of paper PMC10567573.

Here, each record is paired with measured protein stability index data.
B1: INTS3 (parent)
chain: EEITEESLEESVGKPLYLIFRNLC

Variants of: B1
Protocol description: protein stability index of a GFP-peptide fusion (GPS, HEK-293T) (PSI 1-6); higher = more stable;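 also: lentivirally expressed fusions sorted by FACS into six bins by GFP to DsRed ratio, PSI derived from sequencing read proportions per bin multiplied by bin number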
Test conditions: c terminus: a fixed tail appended
The response must contain the number and no unit.

Here are 3 variants together with their reported answers.
>>> result("EEITEESLEESVCKPLYLIFRNLC [G13C]")
2.37
>>> result("EEITYESLEESVGKPLYLIFRNLC [E5Y]")
2.03
>>> result("EEITEESLEESVGKPLYLPFRNLC [I19P]")
4.17

Task: GET /values?readout=protein stability index&item= EEITEESLEESVGKPRYLIFRNLC [L16R]
Result: 3.38

Task: Value lookup for protein stability index; key = EEITEESLEESVGKYLYLIFRNLC [P15Y]
Result: 1.74

Task: What does the data say about its protein stability index? Entry: EEITEESLEESVGKPLKLIFRNLC [Y17K]
Result: 4.07

Task: Record request: protein stability index value, item EEITEESLEESVGRPLYLIFRNLC [K14R]
Result: 3.31

Task: Using the record for EEETEESLEESVGKPLYLIFRNLC [I3E] , report its protein stability index.
Result: 3.82

Task: Dear colleague, I am looking for the recorded protein stability index of the following variant: EEITEESLEETVGKPLYLIFRNLC [S11T]
Result: 2.79

Task: Recorded protein stability index of EEITEESLEESAGKPLYLIFRNLC [V12A] , please.
Result: 3.26

Task: // protein stability index lookup, key: EEITEESLEERVGKPLYLIFRNLC [S11R]
Result: 2.71

Task: I would be grateful if you could share the reported protein stability index for EEITEESLERSVGKPLYLIFRNLC [E10R] .
Result: 2.24

Task: Return reported protein stability index; argument: EEITEESLEESVGKPFYLIFRNLC [L16F]
Result: 3.35

Task: Recorded protein stability index of EEITEESLECSVGKPLYLIFRNLC [E10C] , please.
Result: 1.96

Task: // returns reported protein stability index for input EEITEESLEESVGKPLYLFFRNLC [I19F]
Result: 2.3

Task: // lookup protein stability index for EEITEDSLEESVGKPLYLIFRNLC [E6D]
Result: 2.7

Task: Item QEITEESLEESVGKPLYLIFRNLC [E1Q] has what recorded protein stability index?
Result: 3.06

Task: # get_value(readout='protein stability index', item= HEITEESLEESVGKPLYLIFRNLC [E1H] )
Result: 2.67

Task: Need protein stability index, item EQITEESLEESVGKPLYLIFRNLC [E2Q]
Result: 2.52

Task: // returns reported protein stability index for input ELITEESLEESVGKPLYLIFRNLC [E2L]
Result: 2.11

Task: Would you mind telling me what protein stability index value was observed for EEITEESLEDSVGKPLYLIFRNLC [E10D] ?
Result: 3.09

Task: Please give the measured protein stability index for this variant: EEITEESLEESVGVPLYLIFRNLC [K14V]
Result: 2.6

Task: What value of protein stability index has been reported for the following variant? EEITEESLEESVGKPPYLIFRNLC [L16P]
Result: 3.52

Task: Report protein stability index for EEITEESLEESVGKPLYIIFRNLC [L18I] please.
Result: 2.72
